- assayedTarget: TIPARP (PARP7) (Homo sapiens (Human), UniProt Q7Z3E1)
- Sequence (Q7Z3E1 whole entry): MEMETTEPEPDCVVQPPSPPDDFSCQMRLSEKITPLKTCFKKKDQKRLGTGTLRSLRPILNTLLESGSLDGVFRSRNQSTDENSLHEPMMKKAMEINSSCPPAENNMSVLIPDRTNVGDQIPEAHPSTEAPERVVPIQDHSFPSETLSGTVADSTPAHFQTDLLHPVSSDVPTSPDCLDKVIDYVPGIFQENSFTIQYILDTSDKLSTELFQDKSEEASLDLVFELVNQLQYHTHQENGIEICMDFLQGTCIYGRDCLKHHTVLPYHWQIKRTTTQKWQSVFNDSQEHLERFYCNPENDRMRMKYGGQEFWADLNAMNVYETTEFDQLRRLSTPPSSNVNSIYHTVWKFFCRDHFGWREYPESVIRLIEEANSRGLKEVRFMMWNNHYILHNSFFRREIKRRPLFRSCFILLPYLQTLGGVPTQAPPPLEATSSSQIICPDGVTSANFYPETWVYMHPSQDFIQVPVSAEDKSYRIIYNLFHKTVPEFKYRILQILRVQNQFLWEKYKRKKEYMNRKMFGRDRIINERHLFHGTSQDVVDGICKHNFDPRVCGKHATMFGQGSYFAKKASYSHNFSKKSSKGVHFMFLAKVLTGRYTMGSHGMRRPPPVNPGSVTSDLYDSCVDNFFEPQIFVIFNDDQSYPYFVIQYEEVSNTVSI
pIC50: −log10 of the molar value.
For each of the compounds below, state its pIC50.

Recorded results for 3 compounds are shown here.
1. N#Cc1ccc(N2CCN(C(=O)c3cccc(OC[C@@H]4c5ccccc5CN4c4cn[nH]c(=O)c4C(F)(F)F)c3)CC2)nc1 [Example 18B]: > 7.00
2. N#Cc1ccc(N2CCC3C2CCN3C(=O)CCOC[C@@H]2CCCN2c2cn[nH]c(=O)c2C(F)(F)F)nc1 (stereo partly shown): > 7.00
3. N#Cc1ccc(N2CCN(C(=O)CCO[C@H]3Cc4ccccc4[C@@H]3Nc3cn[nH]c(=O)c3C(F)(F)F)CC2)nc1 [Example 537A]: ≤ 6.00

// next item, pIC50 requested
Known value: TIPARP (PARP7) (Homo sapiens (Human), UniProt Q7Z3E1) pIC50 of the compound COC[C@H](COc1cn[nH]c(=O)c1C(F)(F)F)OCCC(=O)N1CCN(c2ncc(Cl)cn2)CC1 [Example 560B] equals 6.00 to 7.00

###

- assayedTarget: UniProtKB Q7Z3E1
recordedMetric: IC50

Guide cases for IC50, answers given:
1) O=C(COC[C@@H]1CCCN1c1cn[nH]c(=O)c1C(F)(F)F)N[C@H]1CC[C@H](Nc2ccccn2)CC1 [Example 80A]: 100 to 1000 nM
2) N#Cc1ccc(N2CCN(C(=O)CNCC[C@H]3c4ccccc4CN3c3cn[nH]c(=O)c3C(F)(F)F)CC2)nc1 [Example 144A]: < 100 nM
3) N#Cc1ccc(N2CCN(C(=O)c3ccnc(OC[C@@H]4c5ccccc5CN4c4cn[nH]c(=O)c4C(F)(F)F)n3)CC2)nc1 [Example 38A]: < 100 nM
4) COC[C@@H](COc1cn[nH]c(=O)c1C(F)(F)F)OCCC(=O)N1CCN(c2ncc(Cl)cn2)CC1 [Example 560A]: < 100 nM
5) N#Cc1ccc(N2CCN(C(=O)c3ccnc(OC[C@H]4c5ccccc5CN4c4cn[nH]c(=O)c4C(F)(F)F)c3)CC2)nc1 [Example 36A]: ≥ 1000 nM

Record IC50 for all entries; do not skip any.
1. N#Cc1ccc(N2CCN(C(=O)c3cncc(OC[C@H]4c5ccccc5CN4c4cn[nH]c(=O)c4C(F)(F)F)n3)CC2)nc1 [Example 72B]
2. N#Cc1ccc(N2CCN(C(=O)c3ccc(OC[C@H]4c5ccccc5CN4c4cn[nH]c(=O)c4C(F)(F)F)cc3)CC2)nc1 [Example 35B]

["< 100 nM", "100 to 1000 nM"]

Reference source for all entries: patent US10870641B2
